I'd appreciate it if you could supply EC50 values for the items below.
target: T1, human CTLA4 expressed on Jurkat T cells (human, UniProt P16410 36-223); test: flow cytometry on Jurkat T cells expressing hCTLA4
T1 construct: whole, on cells; also called hCTLA4; cell surface-expressed hCTLA4
T1 sequence (P16410 36-223): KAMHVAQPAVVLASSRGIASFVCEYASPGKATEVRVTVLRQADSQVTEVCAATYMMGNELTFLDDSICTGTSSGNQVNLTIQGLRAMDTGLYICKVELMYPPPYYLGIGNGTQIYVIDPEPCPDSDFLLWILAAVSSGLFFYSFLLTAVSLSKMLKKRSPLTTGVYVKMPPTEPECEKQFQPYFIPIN
Dear colleague, please return just the value in nM, with no unit written.

Exercise: Supply reported EC50 belonging to this binder: anti-hCTLA4 antibody 9C4 (antibody, human IgG1, V domains shown) VH: QVQLVESGGGVVEPGRSLRLSCAASGFTFSSYGMHWVRQAPGKGLEWVAVIWYKSSEKDYADSAKGRFTISRDNSKNTLYLQMNSLRAEDTAVYYCARAGLLGYFDYWGQGTLVTVSS VL: EIVLTQSPGTLSLSPGERATLSCRASQSLNSYLAWYQQKPGQAPRPLIYGVSSRATGIPDRFSGSGSGTDFTLTISRLEPEDFAVYYCQQYGIYPFTFGPGTKVDIK
Solution: 0.473

Exercise: For anti-hCTLA4 antibody 11F4 (antibody, human IgG1, V domains shown, unaltered form; also called Anti-CTLA4 11F4; anti-hCTLA4 #11F4) VH: QVQLVESGGGVVEPGRSLRLSCAASGFTFSSYGMHWVRQAPGKGLEWVAVIWYKPSEKDYADSAKGRFTISRDNSKNTLYLQMNSLRAEDTAVYYCARGGLLGYFDYWGQGTLVTVSS VL: EIVLTQSPGTLSLSPGERATLSCRASQSINSYLAWYQQKPGQAPRPLIYGVSSRATGIPDRFSGSGSGTDFTLTISRLEPEDFAVYYCQQYGRYPFTFGPGTKVDIK , write its EC50.
Solution: 0.158

Exercise: Read the entry anti-hCTLA4 antibody 4H1 (antibody, human IgG1, V domains shown) VH: QVQLVESGGGVVEPGRSLRLSCTASGFTFSSYGMHWVRQAPGKGLEWVAVIWYNPSKKDYADSAKGRFTISRDNSKNTLYLQMNSLRAEDTAVYYCARGGLFGYFDYWGQGTLVTVSS VL: EIVLTQSPGTLSLSPGERATLSCRASQSVSSYLAWYQQKPGQAPRPLIYGVSSRATGIPDRFSGSGSGTDFTLTISRLEPEDFAVYYCQQYGMYPFTFGPGTKVDIK and write its reported EC50.
Solution: 0.189
